# MEASUREMENT TARGET: human FAAH (Fatty Acid Amide Hydrolase) (Homo sapiens, UniProt O00519)
# Construct: The full length FAAH was subcloned into the mammalian expression vector, pcDEF.neo, using XbaI and EcoRI restriction sites; expressed in transfected cells
# Sequence (O00519 1-579): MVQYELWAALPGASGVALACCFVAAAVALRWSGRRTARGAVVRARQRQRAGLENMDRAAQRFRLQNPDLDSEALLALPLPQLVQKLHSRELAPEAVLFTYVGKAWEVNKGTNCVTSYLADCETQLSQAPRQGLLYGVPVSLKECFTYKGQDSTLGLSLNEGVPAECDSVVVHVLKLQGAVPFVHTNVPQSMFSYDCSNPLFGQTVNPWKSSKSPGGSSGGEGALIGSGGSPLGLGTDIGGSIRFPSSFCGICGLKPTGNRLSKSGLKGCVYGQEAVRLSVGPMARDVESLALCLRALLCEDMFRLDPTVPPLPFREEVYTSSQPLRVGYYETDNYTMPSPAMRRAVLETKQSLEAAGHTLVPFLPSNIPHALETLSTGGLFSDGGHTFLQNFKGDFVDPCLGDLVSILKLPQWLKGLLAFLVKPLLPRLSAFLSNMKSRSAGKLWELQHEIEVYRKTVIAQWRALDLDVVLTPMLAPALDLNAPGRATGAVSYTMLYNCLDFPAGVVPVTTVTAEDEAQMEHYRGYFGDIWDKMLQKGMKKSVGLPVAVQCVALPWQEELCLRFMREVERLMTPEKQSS
# MEASUREMENT PROTOCOL: FAAH enzyme assay on CHO cell lysate expressing human FAAH (human LY), AAMCA fluorescent substrate
# Type: biochemical
# MEASUREMENT SETUP: human FAAH_CHO cell lysate
pIC50: −log10 of the molar value.
Reported pIC50 values are given for each entry in this list.
PARAMETER: pIC50

[[record]]
compound = "C[S+]([O-])c1ccc(-c2[nH]c3ncccc3c2Sc2ccc(Cl)cc2)cn1 (stereo not drawn)"
test_result = 8.48

[[record]]
compound = "COc1ccc(-c2[nH]c3ncccc3c2Sc2ccc(Cl)cc2)cn1"
test_result = 8.47

[[record]]
compound = "CC(=O)c1ccc(-c2[nH]c3ncccc3c2Sc2ccc(Cl)cc2)s1"
test_result = 7.99

[[record]]
compound = "COc1ccc(-c2[nH]c3ncccc3c2Sc2ccc(Cl)cc2)cc1"
test_result = 8.63

[[record]]
compound = "Cn1cccc2c(Sc3ccc(Cl)cn3)c(-c3ccc4c(c3)OCO4)nc1-2"
test_result = 7.57

[[record]]
compound = "O=C1NCc2cc(-c3[nH]c4ncccc4c3Sc3ccc(Cl)cc3)ccc21"
test_result = 8.11

[[record]]
compound = "O=C(NC1CCCCC1)c1[nH]c2ncccc2c1Sc1ccc(Cl)cc1"
test_result = 7.52

[[record]]
compound = "COc1ncc(-c2[nH]c3ncccc3c2Sc2ccc(Cl)cc2)c(OC)n1"
test_result = 8.02

[[record]]
compound = "CC(C)(O)/C=C/c1[nH]c2ncccc2c1Sc1ccc(Cl)cc1"
test_result = 6.67

[[record]]
compound = "Cn1cccc2c(Sc3ccc(Cl)cc3)c([C@H]3CC[C@H](O)CC3)nc1-2"
test_result = 8.00

[[record]]
compound = "CCNC(=O)C1CC=C(c2[nH]c3ncccc3c2Sc2ccc(Cl)cc2)CC1 (stereo not drawn)"
test_result = 8.02

[[record]]
compound = "COc1cccc(-c2[nH]c3ncccc3c2Sc2ccc(Cl)cc2)c1"
test_result = 8.65

[[record]]
compound = "O=C(NCC(O)C1CCCCC1)c1[nH]c2ncccc2c1Sc1ccc(Cl)cc1 (stereo not drawn)"
test_result = 6.18

[[record]]
compound = "COc1ccc(NC(=O)c2[nH]c3ncccc3c2Sc2ccc(Cl)cc2)cn1"
test_result = 7.37

[[record]]
compound = "COc1ccc(C(O)c2[nH]c3ncccc3c2Sc2ccc(Cl)cc2)cc1 (stereo not drawn)"
test_result = 6.09

[[record]]
compound = "Cn1cccc2c(Sc3ccc(Cl)cn3)c([C@H]3CC[C@H](O)CC3)nc1-2"
test_result = 5.69

[[record]]
compound = "COc1ccc(-c2[nH]c3ncccc3c2Sc2ccc(Cl)cn2)cn1"
test_result = 7.52

[[record]]
compound = "Cc1n[nH]c(C)c1-c1[nH]c2ncccc2c1Sc1ccc(Cl)cc1"
test_result = 7.18

